These entries and their values trace back to the supplement of paper PMC12636033.

PBM 8-mer E-score listing for selected sequences.
Tested on: muMax20 (Max(13-93) K31hArg/K57hArg, M65Nle)
experimental details: PBM 8-mer E-score (E-score (rank enrichment, -0.5 to 0.5)); higher = stronger preferential binding
Whole data set: some 33,000 sequences, median “E-score (rank enrichment, -0.5 to 0.5)” near -0.0068, cut for the highest 2% near 0.24. The list comes from a sample in which the highest values are over-represented; it also holds close analogues and randomly drawn sequences.
// keep it numeric: no unit symbol after the value

Below, each entry is followed by its recorded PBM 8-mer E-score result.
| sequence | assayed system | PBM 8-mer E-score |
| --- | --- | --- |
| ATCGCGCG | muMax20 (Max(13-93) K31hArg/K57hArg, M65Nle) | 0.0373 |
| AATACGAG | muMax20 (Max(13-93) K31hArg/K57hArg, M65Nle) | 0.143 |
| ATGATTAC | muMax20 (Max(13-93) K31hArg/K57hArg, M65Nle) | 0.149 |

Record request: PBM 8-mer E-score value, item `ACGCGTGC`
0.253
